Source listed as patent US20150139990A1.

Give measured Jurkat chemotaxis (% of control IgG4) at 1 µg/mL for each item. Keep answers brief.
- Tested target: T1, human CD81 on CD81-expressing cells (Jurkat E6.1, human PBMC, Ramos) (human, UniProt P60033 1-236)
- T1 sequence: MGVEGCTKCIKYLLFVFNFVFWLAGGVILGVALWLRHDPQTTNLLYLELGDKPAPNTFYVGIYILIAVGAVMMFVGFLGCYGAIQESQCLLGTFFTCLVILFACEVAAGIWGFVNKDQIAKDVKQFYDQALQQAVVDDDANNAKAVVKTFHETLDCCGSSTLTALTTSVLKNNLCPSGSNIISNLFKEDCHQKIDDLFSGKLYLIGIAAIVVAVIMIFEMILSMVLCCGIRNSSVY
- Method description: cell-based or functional assay
Dear colleague, please return just the value in %, with no unit written.

[ask] What Jurkat chemotaxis (% of control IgG4) at 1 µg/mL value was documented for this binder, 002-D03 (antibody, human IgG4 S228P, lambda, V domains shown, IgG4 S228P) VH: EVQLLESGGGLVQPGGSLRLSCAASGFTFRSNYMSWVRQAPGKGLEWVSYISSSSTYTDYADSVKGRFTISRDNSKNTLYLQMNSLRAEDTAVYYCARYSYGRDNFDYWGQGTLVTVSS VL: QSVLTQPPSASGTPGQRVTISCTGSTSNIGAGYDTHWYQQLPGTAPKLLIYGNSNRPSGVPDRFSGSKSGTSASLAISGLRSEDEADYYCQSYDTNLSVWVFGGGTKLTVLG ?
[reply] 14

[ask] What Jurkat chemotaxis (% of control IgG4) at 1 µg/mL value was documented for this binder, 001-B06 (antibody, human IgG4 S228P, lambda, V domains shown, IgG4 S228P) VH: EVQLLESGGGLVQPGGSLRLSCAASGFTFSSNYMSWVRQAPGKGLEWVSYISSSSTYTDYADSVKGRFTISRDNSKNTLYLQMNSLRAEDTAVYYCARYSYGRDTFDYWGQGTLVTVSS VL: QSVLTQPFSASGTPGQRVTISCTGSTSNIGAGYDTHWYQQLPGTAPKLLIYGNSNRPSGVPDRFSGSKSGTSASLAISGLRPEDEADYYCQSYDTSLSVWVFGGGTKLTVLG ?
[reply] 3

[ask] What Jurkat chemotaxis (% of control IgG4) at 1 µg/mL value was documented for this binder, 002-D08 (antibody, human IgG4 S228P, lambda, V domains shown, IgG4 S228P) VH: EVQLLESGGGLVQPGGSLRLSCATSGFPFSSNYMSWVRQAPGKGLEWVSYISSSSTYSDYADSVKGRFSISRDNSKNTLYLQMNSLRAEDTAVYYCARYSYGRDNFDYWGQGTLVTVSS VL: QSVLTQPSSASGTPGQRVTISCTGSTSNIGAGYATHWYQQLPGTAPKLLIYGNSNRPSGVPDRFSGSKSGTSASLAISGLRSEDEADYYCQSYDTNLSVWVFGGGTKLTVLG ?
[reply] 19

[ask] What Jurkat chemotaxis (% of control IgG4) at 1 µg/mL value was documented for this binder, 002-B07 (antibody, human IgG4 S228P, lambda, V domains shown, IgG4 S228P) VH: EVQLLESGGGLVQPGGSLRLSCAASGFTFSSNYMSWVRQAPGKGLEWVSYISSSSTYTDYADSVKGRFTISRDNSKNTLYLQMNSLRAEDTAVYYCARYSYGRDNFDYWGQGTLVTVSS VL: QSVLTQPSSASGTPGQRVTISCTGSTSNIGAGYDTHWYQQLPGTAPKLLIYGNSNRPSGVPDRFSGSKSGTSASLAISGLRSEDEADYYCQSYDTNLSGWVFGGGTKLTVLG ?
[reply] 4

[ask] What Jurkat chemotaxis (% of control IgG4) at 1 µg/mL value was documented for this binder, 002-B05 (antibody, human IgG4 S228P, lambda, V domains shown, IgG4 S228P) VH: EVQLLESGGGLVQPGGSLRLSCAASGFTFSSNYMSWVRQAPGKGLEWVSYISSSSTYTDYADSVKGRFTISRDNSKNTLYLQMNSLRAEDTAVYYCARYSYSRDNFDYWGQGTLVTVSS VL: QSVLTQPPSASGTPGQRVTISCTGSTSNIGAGYGTHWYQRLPGTAPKLLIYGNSNRPSGVPDRFSGSKSGTSASLAISGLRSEDEADYYCQSYDTNLSVWVFGGGTKLTVLG ?
[reply] -1

[ask] What Jurkat chemotaxis (% of control IgG4) at 1 µg/mL value was documented for this binder, 003-A11 (antibody, human IgG4 S228P, lambda, V domains shown, IgG4 S228P) VH: EVQLLESGGGLVQPGGSLRLSCAASGFTFGSNYMSWVRQAPGKGLEWVSYISSSSTYTDYADSVKGRFTISRDNSKNTLYLQMNSLRAEDTAVYYCARYSYGRDNFDYWGQGTLVTVSS VL: QSVLTQPPSASGTPGQRVTISCTGSTSNIGAGYDTHWYQQLPGTAPKLLIYGNSNRPSGVPDRFSGSKSGTSASLAISGLRSEDEADYYCQSYDTNLSGWVFGGGTKLTVLG ?
[reply] 1

[ask] What Jurkat chemotaxis (% of control IgG4) at 1 µg/mL value was documented for this binder, 003-D07 (antibody, human IgG4 S228P, lambda, V domains shown, IgG4 S228P) VH: EVQLLESGGGLVQPGGSLRLSCAASGFTFSSNYMSWVRQAPGKGLEWVSYISSSSTYTDYADSVKGRFTISRDNSKNTLYLQMNSLRAEDTAVYYCARYSYDRDNFDYWGQGTLVTVSS VL: QSVLTQPFSASGTPGQRVTISCTGSTSNIGAGYDTHWYQHLPGTAPKLLIYGNSNRPSGVPDRFSGSKSGTSASLAISGLRSEDEADYYCQSYDTNLSVWVFGGGTKLTVLG ?
[reply] -5

[ask] What Jurkat chemotaxis (% of control IgG4) at 1 µg/mL value was documented for this binder, 002-H02 (antibody, human IgG4 S228P, lambda, V domains shown, IgG4 S228P) VH: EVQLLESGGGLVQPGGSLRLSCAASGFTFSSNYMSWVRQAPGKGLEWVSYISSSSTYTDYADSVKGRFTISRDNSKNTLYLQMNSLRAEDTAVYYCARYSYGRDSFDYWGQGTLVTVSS VL: QSVLTQPSSASGTPGQRVTISCTGSTSNIGAGYGTHWYQQLPGTAPKLLIYGNSNRPSGVPDRFSGSKSGTSASLAISGLRSEDEADYYCQSYDTNLSVWVFGGGTKLTVLG ?
[reply] -10

[ask] What Jurkat chemotaxis (% of control IgG4) at 1 µg/mL value was documented for this binder, 002-H03 (antibody, human IgG4 S228P, lambda, V domains shown, IgG4 S228P) VH: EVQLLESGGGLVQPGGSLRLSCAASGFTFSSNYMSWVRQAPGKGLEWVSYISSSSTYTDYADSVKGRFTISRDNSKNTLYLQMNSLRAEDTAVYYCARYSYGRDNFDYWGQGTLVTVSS VL: QSVLTQPSSASGTPGQRVTISCTGSTSNIGAGYDTHWYQQLPGTAPKPLIYGNSNRPSGVPDRFSGSKSGTSASLAISGLRSEDEADYYCQSYDTNLSAWVFGGGTKLTVLG ?
[reply] 0

[ask] What Jurkat chemotaxis (% of control IgG4) at 1 µg/mL value was documented for this binder, 002-A07 N113G (antibody, human IgG4 S228P, lambda, V domains shown, IgG4 S228P; glycosylation site mutant of 002-A07 VL) VH: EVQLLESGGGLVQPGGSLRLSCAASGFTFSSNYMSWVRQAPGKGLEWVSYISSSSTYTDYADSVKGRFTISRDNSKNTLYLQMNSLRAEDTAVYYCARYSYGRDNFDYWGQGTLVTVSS VL: QSVLTQPPSASGTPGQRVTISCTGSTSNIGAGYDTHWYQQLPGTAPKLLIYGNSNRPSGVPDRFSGSKSGTSASLAISGLRSEDEADYYCQSYDTGLSVWVFGGGTKLTVLG ?
[reply] 13
